- study_system: hM2 mAChR (Homo sapiens, UniProt P08172)
- Construct: expressed in transfected cells; host or cells: CHO-K1 (membrane preparation)
- Sequence (P08172 whole entry): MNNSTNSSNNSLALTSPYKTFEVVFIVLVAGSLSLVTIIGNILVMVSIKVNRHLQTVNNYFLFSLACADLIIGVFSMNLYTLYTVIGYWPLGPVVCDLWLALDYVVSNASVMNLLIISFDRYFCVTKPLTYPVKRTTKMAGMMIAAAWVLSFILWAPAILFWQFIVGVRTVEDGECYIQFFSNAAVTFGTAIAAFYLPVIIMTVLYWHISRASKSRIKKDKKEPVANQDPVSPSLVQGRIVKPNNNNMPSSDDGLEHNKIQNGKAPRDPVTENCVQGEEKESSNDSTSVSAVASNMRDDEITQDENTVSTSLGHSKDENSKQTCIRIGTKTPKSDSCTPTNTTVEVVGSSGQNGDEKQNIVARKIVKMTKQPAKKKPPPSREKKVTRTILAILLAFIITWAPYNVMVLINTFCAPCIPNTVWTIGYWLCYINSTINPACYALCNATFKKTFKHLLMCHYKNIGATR
- protocol_details: [3H]NMS inhibition radioligand binding, hM2 in CHO-K1 cell membranes
- measurement_conditions: [3H]NMS, CHO-K1 cell membranes; mean ± S.E.M.
- Description: CHO-K1 cells stably transfected with the human muscarinic receptor subtypes (hM1–5) were grown in Dulbecco’s modified Eagle’s medium (DMEM) with nutrient mixture F12 (DMEM/F12, 50/50), containing 10% fetal bovine serum, penicillin (100 U/mL), streptomycin (100 U/mL), L-glutamine (4 mM), and geneticin (G-418, 50 μg/mL) at 37 °C in a 5% CO2 humidified incubator. […] The protein content was determined by the method of Bradford (1976) with bovine serum albumin (Sigma) as a standard and stored at −80 °C. […]
Task for the reader: assign each of the following molecules its reported pKi hM2.
Simply state the number, no unit and no words.

Input line: Using known records, supply pKi hM2 for C[N+](C)(C)C[C@@H]1CO[C@@H](c2ccc(Sc3ccccc3)cc2)CO1.[I-] (relative stereo) [15b]
Output line: 5.86

Input line: Using known records, supply pKi hM2 for C[N+](C)(C)C[C@@H]1CO[C@@H](C(c2ccccc2)c2ccccc2)CO1.[I-] (relative stereo) [12b]
Output line: 6.06

Input line: Using known records, supply pKi hM2 for CN(C)C[C@@H]1COC[C@](c2ccccc2)(C2CCCCC2)O1 [(2R,6R)-(+)-33b]
Output line: 7.17

Input line: Using known records, supply pKi hM2 for C[N+](C)(C)C[C@@H]1COC[C@H](c2ccc(Sc3ccccc3)cc2)O1.[I-] (relative stereo)
Output line: 5.47

Input line: Using known records, supply pKi hM2 for C[N+](C)(C)C[C@@H]1COC[C@@H](c2ccc(-c3ccccc3)cc2)O1.[I-] (relative stereo)
Output line: 5.27

Input line: Using known records, supply pKi hM2 for C[N+](C)(C)C[C@@H]1CO[C@](c2ccccc2)(C2CCCCC2)CO1.[I-] (relative stereo) [11b]
Output line: 7.22

Input line: Using known records, supply pKi hM2 for C[N+](C)(C)C[C@@H]1COC[C@@](c2ccccc2)(C2CCCCC2)O1.[I-] (relative stereo)
Output line: 7.36

Input line: Using known records, supply pKi hM2 for C[N+](C)(C)C[C@@H]1CO[C@@H](c2ccc([S+]([O-])c3ccccc3)cc2)CO1.[I-] (relative stereo) [16b]
Output line: 6.38

Input line: Using known records, supply pKi hM2 for C[N+](C)(C)C[C@@H]1CO[C@@H](c2ccccc2)[C@@H](c2ccccc2)O1.[I-] (relative stereo) [18c]
Output line: 6.62

Input line: Using known records, supply pKi hM2 for C[N+](C)(C)C[C@@H]1CO[C@H](c2ccc(Cc3ccccc3)cc2)CO1.[I-] (relative stereo) [14a]
Output line: 5.65

Input line: Using known records, supply pKi hM2 for C[N+](C)(C)C[C@@H]1COC[C@H](c2ccc([S+]([O-])c3ccccc3)cc2)O1.[I-] (relative stereo)
Output line: 5.52

Input line: Using known records, supply pKi hM2 for C[N+](C)(C)C[C@H]1COC[C@@](c2ccccc2)(C2CCCCC2)O1.[I-] [(2S,6S)-(−)-3b]
Output line: 8.22

Input line: Using known records, supply pKi hM2 for C[N+](C)(C)C[C@@H]1CO[C@H](C(c2ccccc2)c2ccccc2)CO1.[I-] (relative stereo) [12a]
Output line: 5.87
